Where do the numbers come from? From PubChem BioAssay (NCI).

Assay: NCI Yeast Anticancer Drug Screen. Data for the rad50EPP+ strain (AID 151);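 also: 0% = growth of vehicle-treated control cultures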
Settings: S. cerevisiae rad50 mutant strain, at 1.2 µM, hits give high values
About 79,000 compounds went through this panel and 15% of them were active in at least one assay; those are over-represented in the sample as a whole.
Outcome measure: growth inhibition (%)
Numbers only, in %.

Molecule	growth inhibition, %
O=C1SS(=O)c2ccccc21 (stereo unspecified)	7

// batch mode: one growth inhibition value per listed entry
1. Cc1oc2ccccc2c(=O)c1Cn1nnc2ccccc21
2. CCCCCCC=C(C(=O)OCC)C(=O)OCC
3. O=C(Cc1ccccc1)NNc1nc(NNC(=O)c2ccncc2)nc(Nc2ccc([N+](=O)[O-])cc2)n1
4. CCOC(=O)/C(=C\c1cccc(C)c1)C(C)=O
5. CC(C)C(c1ccccc1)c1ccccc1

1. -1
2. -1
3. 4
4. 48
5. 3
